Biological target: T1, SlHY5 (Solanum lycopersicum, UniProt Q9SM50 1-158)
T1 sequence: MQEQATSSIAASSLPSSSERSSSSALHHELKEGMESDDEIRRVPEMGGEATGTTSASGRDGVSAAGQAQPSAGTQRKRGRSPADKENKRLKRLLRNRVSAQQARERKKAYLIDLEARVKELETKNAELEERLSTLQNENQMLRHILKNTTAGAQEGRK
Assay: EMSA; LightShift Chemiluminescent EMSA kit (Thermo 20148); buffer, salt, pH and temperature not stated
Settings: protein: recombinant, tags: His, chain copies: 2, blunt
QUANTITY: binding result

- BINDER: "SlCYCB probe (dsDNA) DNA 1: ACGTGTTTATTTTTTACTTTAAGAACGTG DNA 2: CACGTTCTTAAAGTAAAAAATAAACACGT"
  binding result: "binds"
- BINDER: "SlLHCA-m probe (dsDNA) DNA 1: CAAATTGGTGACATTTTACATTCTGGCA DNA 2: TGCCAGAATGTAAAATGTCACCAATTTG"
  binding result: "no binding"
- BINDER: "SlLHCB probe (dsDNA) DNA 1: CTGCTTAGTTGTACGTCTTGTAATCCTC DNA 2: GAGGATTACAAGACGTACAACTAAGCAG"
  binding result: "binds"
- BINDER: "SlCYCB-m probe (dsDNA) DNA 1: ACGTGTTTATTTTTTACTTTAAGATTTTG DNA 2: CAAAATCTTAAAGTAAAAAATAAACACGT"
  binding result: "no binding"
- BINDER: "SlLHCB-m probe (dsDNA) DNA 1: CTGCTTAGTTGTTTTTCTTGTAATCCTC DNA 2: GAGGATTACAAGAAAAACAACTAAGCAG"
  binding result: "no binding"

Query binder follows.
# lookup: binding result of SlLHCA probe (dsDNA) DNA 1: CAAATTGGTGACAACGTACATTCTGGCA DNA 2: TGCCAGAATGTACGTTGTCACCAATTTG
binds
